molecular target: human vasopressin V2 receptor subtype (Homo sapiens, UniProt P30518); construct: host or cells: CHO cells (pZeoSV vector); test: Vasopressin binding in Chinese Hamster Ovary cell membranes expressing human vasopressin V2 subtype receptors; conditions: 100 nM, CHO cell membranes, [3H]arginine vasopressin, values without parentheses
Sequence (P30518 whole entry): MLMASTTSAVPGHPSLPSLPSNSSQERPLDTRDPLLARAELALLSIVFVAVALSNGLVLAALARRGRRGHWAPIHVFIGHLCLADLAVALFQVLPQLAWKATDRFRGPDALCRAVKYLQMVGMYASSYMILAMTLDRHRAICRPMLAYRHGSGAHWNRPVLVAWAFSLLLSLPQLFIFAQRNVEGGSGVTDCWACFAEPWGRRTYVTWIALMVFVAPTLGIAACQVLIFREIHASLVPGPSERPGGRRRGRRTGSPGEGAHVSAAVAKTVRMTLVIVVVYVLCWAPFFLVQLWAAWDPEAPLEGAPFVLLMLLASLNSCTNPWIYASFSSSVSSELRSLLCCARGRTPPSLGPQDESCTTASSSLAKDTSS
inhibition at 0.1 µM listing for selected molecules.
Parameter measured: inhibition at 0.1 µM (%)

molecule="COc1ccccc1-c1ccc(C(=O)N2Cc3ccc(C(=O)N(C)CCCN(C)C)n3Cc3ccccc32)cc1C [Example 100]" value=26
molecule="COc1cc(C(=O)N2Cc3ccc(C(=O)N4CCN(CCCN(C)C)CC4)n3Cc3ccccc32)ccc1-c1cccc2ccccc12 [Example 253]" value=-10
molecule="COc1cc(C(=O)N2Cc3ccc(C(=O)NCCN4CCCCC4)n3Cc3ccccc32)ccc1-c1cccc2ccccc12 [Example 157]" value=23
molecule="COc1ccccc1-c1ccc(C(=O)N2Cc3ccc(C(=O)N(C)C4CCN(C)CC4)n3Cc3ccccc32)cc1C [Example 175]" value=17
molecule="COc1ccccc1-c1ccc(C(=O)N2Cc3ccc(C(=O)N(C)CCCN(C)C)n3Cc3ccccc32)cc1OC [Example 107]" value=19
molecule="COc1cccc(-c2ccc(C(=O)N3Cc4ccc(C(=O)N5CCN(CCN6CCOCC6)CC5)n4Cc4ccccc43)cc2C)c1 [Example 208]" value=12
molecule="Cc1cc(C(=O)N2Cc3ccc(C(=O)N4CCN(CCCN(C)C)CC4)n3Cc3ccccc32)ccc1-c1ccccc1C(F)(F)F [Example 4]" value=24

###

Reported inhibition at 0.1 µM values for a set of molecules
target: human vasopressin V1a receptor subtype (Homo sapiens); construct: host or cells: CHO cells (pZeoSV vector for the Thibonnier line); test: Vasopressin binding in Chinese Hamster Ovary cell membranes expressing human vasopressin V1a subtype receptors; conditions: 100 nM, CHO cell membranes, [3H]Manning ligand, values without parentheses
Sequence (P37288 whole entry): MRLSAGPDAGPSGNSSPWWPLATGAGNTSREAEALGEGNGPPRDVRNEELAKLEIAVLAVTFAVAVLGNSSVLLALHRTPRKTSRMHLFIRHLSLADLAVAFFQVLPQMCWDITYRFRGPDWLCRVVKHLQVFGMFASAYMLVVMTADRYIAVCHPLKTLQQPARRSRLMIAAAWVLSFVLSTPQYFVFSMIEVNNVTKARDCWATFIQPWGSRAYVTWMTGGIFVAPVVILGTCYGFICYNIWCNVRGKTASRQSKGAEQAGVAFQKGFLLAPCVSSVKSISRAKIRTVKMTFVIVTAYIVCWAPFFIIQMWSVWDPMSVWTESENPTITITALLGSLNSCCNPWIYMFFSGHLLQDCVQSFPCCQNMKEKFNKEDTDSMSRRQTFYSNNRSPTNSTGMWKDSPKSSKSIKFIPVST
Parameter measured: inhibition at 0.1 µM (%)

molecule="COc1ccccc1-c1ccc(C(=O)N2Cc3ccc(C(=O)NCCC4CCCN4C)n3Cc3ccccc32)cc1OC (stereo not shown)" value=14
molecule=COc1cccc(-c2ccc(C(=O)N3Cc4ccc(C(=O)N5CCN(CCN6CCOCC6)CC5)n4Cc4ccccc43)cc2OC)c1 value=45
molecule=Cc1ccccc1-c1ccc(C(=O)N2Cc3ccc(C(=O)NCCCN(C)C)n3Cc3ccccc32)cc1C value=46
molecule=COc1cc(-c2ccccc2C)c(Cl)cc1C(=O)N1Cc2ccc(C(=O)N3CCN(CCCN(C)C)CC3)n2Cc2ccccc21 value=6
molecule=Cc1cc(C(=O)N2Cc3ccc(C(=O)N(C)C4CCN(C)CC4)n3Cc3ccccc32)ccc1-c1ccccc1C(F)(F)F value=0
molecule=COc1ccccc1-c1ccc(C(=O)N2Cc3ccc(C(=O)N4CCN(CCN5CCOCC5)CC4)n3Cc3ccccc32)cc1OC value=8
molecule=COc1cc(-c2ccccc2C)c(Cl)cc1C(=O)N1Cc2ccc(C(=O)N[C@@H](CCCCNC(=O)OC(C)(C)C)C(N)=O)n2Cc2ccccc21 value=-7
molecule=COc1cccc(-c2ccc(C(=O)N3Cc4ccc(C(=O)N5CCC(N6CCCC6)CC5)n4Cc4ccccc43)cc2C)c1 value=9
molecule=COc1cccc(-c2ccc(C(=O)N3Cc4ccc(C(=O)NCCCN(C)C)n4Cc4ccccc43)cc2OC)c1 value=37
molecule="COc1cc(C(=O)N2Cc3ccc(C(=O)NCCC4CCCN4C)n3Cc3ccccc32)ccc1-n1c(C)ccc1C (stereo not shown)" value=7
molecule=COc1cc(C(=O)N2Cc3ccc(C(=O)N4CCN(CCN(C)C)CC4)n3Cc3ccccc32)ccc1-c1cccc2ccccc12 value=4
molecule=COc1ccccc1-c1ccc(C(=O)N2Cc3ccc(C(=O)N(C)C4CCN(C)CC4)n3Cc3ccccc32)cc1 value=42
molecule=CN(C)CCN(C)C(=O)c1ccc2n1Cc1ccccc1N(C(=O)c1ccc(-c3cccc4ccccc34)cc1Cl)C2 value=10
molecule="COc1ccccc1-c1ccc(C(=O)N2Cc3ccc(C(=O)N(C)C4CCN(C)C4)n3Cc3ccccc32)cc1C (stereo not shown)" value=37
molecule=COc1cc(C(=O)N2Cc3ccc(C(=O)N4CCN(CCCN(C)C)CC4)n3Cc3ccccc32)ccc1-n1c(C)ccc1C value=4
molecule=O=C(c1ccc2n1Cc1ccccc1N(C(=O)c1ccc(-c3cccc4ccccc34)cc1Cl)C2)N1CCN(CCN2CCOCC2)CC1 value=5
molecule=COc1ccccc1-c1ccc(C(=O)N2Cc3ccc(C(=O)NCCCn4ccnc4)n3Cc3ccccc32)cc1C value=9
molecule="COc1ccccc1-c1ccc(C(=O)N2Cc3ccc(C(=O)N(C)C4CCN(C)C4)n3Cc3ccccc32)cc1OC (stereo not shown)" value=41
molecule=COc1cccc(-c2ccc(C(=O)N3Cc4ccc(C(=O)N(C)CCN(C)C)n4Cc4ccccc43)cc2OC)c1 value=68
molecule=COc1ccccc1-c1ccc(C(=O)N2Cc3ccc(C(=O)N[C@@H](Cc4c[nH]cn4)C(N)=O)n3Cc3ccccc32)cc1C value=24
molecule=Cc1cc(C(=O)N2Cc3ccc(C(=O)N4CCC(N5CCCCC5)CC4)n3Cc3ccccc32)ccc1-c1ccccc1C(F)(F)F value=8
molecule=COc1ccccc1-c1ccc(C(=O)N2Cc3ccc(C(=O)N[C@H]4CN5CCC4CC5)n3Cc3ccccc32)cc1 value=31
molecule=COc1cccc(-c2ccc(C(=O)N3Cc4ccc(C(=O)NCCN5CCCCC5)n4Cc4ccccc43)cc2C)c1 value=17
molecule=COc1cccc(-c2ccc(C(=O)N3Cc4ccc(C(=O)NCCN5CCCCC5)n4Cc4ccccc43)cc2OC)c1 value=44
molecule=C=CCN1CCN(C(=O)c2ccc3n2Cc2ccccc2N(C(=O)c2ccc(-c4ccccc4C)c(OC)c2)C3)CC1 value=35
molecule=C=CCN1CCN(C(=O)c2ccc3n2Cc2ccccc2N(C(=O)c2ccc(-c4ccccc4OC)c(OC)c2)C3)CC1 value=2
molecule=COc1cc(C(=O)N2Cc3ccc(C(=O)N4CCC(N5CCCCC5)CC4)n3Cc3ccccc32)ccc1-c1cccc2ccccc12 value=14
molecule=COc1cccc(-c2ccc(C(=O)N3Cc4ccc(C(=O)N5CCN(CCN6CCOCC6)CC5)n4Cc4ccccc43)cc2C)c1 value=20

###

biological target: human vasopressin V2 receptor subtype (Homo sapiens, UniProt P30518); construct: host or cells: CHO cells (pZeoSV vector); assay: Vasopressin binding in Chinese Hamster Ovary cell membranes expressing human vasopressin V2 subtype receptors; settings: CHO cell membranes, [3H]arginine vasopressin, values in parentheses
pIC50: −log10 of the molar value.
Parameter measured: pIC50

molecule="Cc1cc(C(=O)N2Cc3ccc(C(=O)N4CCN(CCN(C)C)CC4)n3Cc3ccccc32)ccc1-c1ccccc1C(F)(F)F [Example 196]" value=6.07
molecule="COc1ccccc1-c1ccc(C(=O)N2Cc3ccc(C(=O)N4CCN(CCN(C)C)CC4)n3Cc3ccccc32)cc1C [Example 195]" value=6.53
molecule="COc1cc(C(=O)N2Cc3cccn3Cc3ccccc32)ccc1-n1c(C)ccc1C [Example 27]" value=6.83
molecule="Cc1cc(C(=O)N2Cc3ccc(C(=O)N4CC[C@@H](N(C)C)C4)n3Cc3ccccc32)ccc1-c1ccccc1C(F)(F)F [Example 271]" value=5.72
molecule="COc1cc(-c2ccccc2C)c(Cl)cc1C(=O)N1Cc2ccc(C(=O)N(C)CCCN(C)C)n2Cc2ccccc21 [Example 98]" value=5.99
molecule="COc1ccccc1-c1ccc(C(=O)N2Cc3ccc(C(=O)N4CCN(C)CC4)n3Cc3ccccc32)cc1 [Example 48]" value=6.15
molecule="COc1cc(-c2ccccc2C)c(Cl)cc1C(=O)N1Cc2ccc(C(=O)N3CCN(C)CC3)n2Cc2ccccc21 [Example 47]" value=6.14

###

molecular target: human vasopressin V2 receptor subtype (Homo sapiens); construct: host or cells: CHO cells (pZeoSV vector); test: Vasopressin binding in Chinese Hamster Ovary cell membranes expressing human vasopressin V2 subtype receptors; conditions: 100 nM, CHO cell membranes, [3H]arginine vasopressin, values without parentheses
Categorized via inhibition at 0.1 µM: low: < 8%; middle: ≥ 8% and < 20%; high: ≥ 20%

compound="CN1CCN(C(=O)c2ccc3n2Cc2ccccc2N(C(=O)c2ccc(-c4cccc5ccccc45)cc2Cl)C3)CC1 [Example 58]" study_system="human vasopressin V2 receptor subtype (Homo sapiens)" cat=middle
compound="Cc1cc(C(=O)N2Cc3ccc(C(=O)N4CCN(C(C)C)CC4)n3Cc3ccccc32)ccc1-c1ccccc1C(F)(F)F [Example 240]" study_system="human vasopressin V2 receptor subtype (Homo sapiens)" cat=middle
compound="COc1cc(C(=O)N2Cc3ccc(C(=O)NCCN4CCCCC4)n3Cc3ccccc32)ccc1-n1c(C)ccc1C [Example 314]" study_system="human vasopressin V2 receptor subtype (Homo sapiens)" cat=low
compound="COc1cccc(-c2cc(OC)c(C(=O)N3Cc4ccc(C(=O)N5CCCN(C)CC5)n4Cc4ccccc43)cc2Cl)c1 [Example 67]" study_system="human vasopressin V2 receptor subtype (Homo sapiens)" cat=low
compound="COc1cc(C(=O)N2Cc3ccc(C(=O)N(C)C4CCN(C)CC4)n3Cc3ccccc32)ccc1-c1ccccc1C [Example 179]" study_system="human vasopressin V2 receptor subtype (Homo sapiens)" cat=high
compound="COc1cccc(-c2ccc(C(=O)N3Cc4ccc(C(=O)N5CCC(N6CCCCC6)CC5)n4Cc4ccccc43)cc2C)c1 [Example 114]" study_system="human vasopressin V2 receptor subtype (Homo sapiens)" cat=high
compound="COc1cccc(-c2ccc(C(=O)N3Cc4ccc(C(=O)N5CCN(C(C)C)CC5)n4Cc4ccccc43)cc2C)c1 [Example 235]" study_system="human vasopressin V2 receptor subtype (Homo sapiens)" cat=middle
compound="COc1cc(C(=O)N2Cc3ccc(C(=O)N4CCC(N5CCCCC5)CC4)n3Cc3ccccc32)ccc1-n1c(C)ccc1C [Example 311]" study_system="human vasopressin V2 receptor subtype (Homo sapiens)" cat=low
compound="Cc1cc(C(=O)N2Cc3ccc(C(=O)N4CCC(N5CCCC5)CC4)n3Cc3ccccc32)ccc1-c1ccccc1C(F)(F)F [Example 148]" study_system="human vasopressin V2 receptor subtype (Homo sapiens)" cat=low
compound="Cc1ccccc1-c1ccc(C(=O)N2Cc3ccc(C(=O)N(C)C4CCN(C)CC4)n3Cc3ccccc32)cc1 [Example 178]" study_system="human vasopressin V2 receptor subtype (Homo sapiens)" cat=middle
compound="Cc1ccccc1-c1ccc(C(=O)N2Cc3ccc(C(=O)NCCCn4ccnc4)n3Cc3ccccc32)cc1 [Example 127]" study_system="human vasopressin V2 receptor subtype (Homo sapiens)" cat=low
compound="COc1ccccc1-c1ccc(C(=O)N2Cc3ccc(C(=O)NCCCN(C)C)n3Cc3ccccc32)cc1 [Example 75]" study_system="human vasopressin V2 receptor subtype (Homo sapiens)" cat=middle
compound="Cc1ccccc1-c1ccc(C(=O)N2Cc3ccc(C(=O)NCCCn4ccnc4)n3Cc3ccccc32)cc1C [Example 124]" study_system="human vasopressin V2 receptor subtype (Homo sapiens)" cat=high
compound="COc1cc(-c2ccccc2C)c(Cl)cc1C(=O)N1Cc2ccc(C(=O)NCCN3CCCCC3)n2Cc2ccccc21 [Example 155]" study_system="human vasopressin V2 receptor subtype (Homo sapiens)" cat=middle
compound="COc1cccc(-c2ccc(C(=O)N3Cc4ccc(C(=O)N5CCC(N6CCCC6)CC5)n4Cc4ccccc43)cc2OC)c1 [Example 146]" study_system="human vasopressin V2 receptor subtype (Homo sapiens)" cat=middle
compound="COc1ccccc1-c1ccc(C(=O)N2Cc3ccc(C(=O)N(C)CCCN(C)C)n3Cc3ccccc32)cc1 [Example 103]" study_system="human vasopressin V2 receptor subtype (Homo sapiens)" cat=middle
compound="COc1ccccc1-c1ccc(C(=O)N2Cc3ccc(C(=O)NCCCn4ccnc4)n3Cc3ccccc32)cc1OC [Example 132]" study_system="human vasopressin V2 receptor subtype (Homo sapiens)" cat=middle
compound="COc1cc(C(=O)N2Cc3ccc(C(=O)N4CCC(N5CCCC5)CC4)n3Cc3ccccc32)ccc1-c1cccc2ccccc12 [Example 144]" study_system="human vasopressin V2 receptor subtype (Homo sapiens)" cat=low
compound="COc1cccc(-c2ccc(C(=O)N3Cc4ccc(C(=O)N(C)CCN(C)C)n4Cc4ccccc43)cc2OC)c1 [Example 95]" study_system="human vasopressin V2 receptor subtype (Homo sapiens)" cat=middle
compound="Cc1cc(C(=O)N2Cc3ccc(C(=O)NCCC4CCCN4C)n3Cc3ccccc32)ccc1-c1ccccc1C(F)(F)F (stereo not shown) [Example 174]" study_system="human vasopressin V2 receptor subtype (Homo sapiens)" cat=low
compound="O=C(NCCN1CCCCC1)c1ccc2n1Cc1ccccc1N(C(=O)c1ccc(-c3cccc4ccccc34)cc1Cl)C2 [Example 160]" study_system="human vasopressin V2 receptor subtype (Homo sapiens)" cat=high
compound="COc1ccccc1-c1ccc(C(=O)N2Cc3ccc(C(=O)N[C@@H](Cc4c[nH]cn4)C(N)=O)n3Cc3ccccc32)cc1 [Example 285]" study_system="human vasopressin V2 receptor subtype (Homo sapiens)" cat=high
compound="Cc1cc(C(=O)N2Cc3ccc(C(=O)NCCCn4ccnc4)n3Cc3ccccc32)ccc1-c1ccccc1C(F)(F)F [Example 135]" study_system="human vasopressin V2 receptor subtype (Homo sapiens)" cat=low
